meta.source: patent US20110212843

assayed_system: NF-kB p50 homodimer (UniProt P19838 P19838:1-433)
Sequence (P19838 1-433, one chain of several): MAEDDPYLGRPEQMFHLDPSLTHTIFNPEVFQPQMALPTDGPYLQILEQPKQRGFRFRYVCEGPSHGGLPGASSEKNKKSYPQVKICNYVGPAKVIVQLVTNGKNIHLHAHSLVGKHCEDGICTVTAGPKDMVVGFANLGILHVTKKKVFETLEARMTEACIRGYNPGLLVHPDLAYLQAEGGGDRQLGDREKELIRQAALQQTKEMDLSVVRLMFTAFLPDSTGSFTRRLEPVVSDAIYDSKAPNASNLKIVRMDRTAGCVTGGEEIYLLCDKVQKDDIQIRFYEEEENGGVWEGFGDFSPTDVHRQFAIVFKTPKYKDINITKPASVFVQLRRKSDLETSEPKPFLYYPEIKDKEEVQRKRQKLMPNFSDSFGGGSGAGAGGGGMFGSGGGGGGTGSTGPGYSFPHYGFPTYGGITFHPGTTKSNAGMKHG
assay_details: sub-nM binding affinity
experimental_conditions: chain copies: 2 stated
pKd: −log10 of the molar value.
measured_attribute: pKd

[
  {
    "binder": "XBY-6 (dsDNA, phosphorodithioate 3' of T9 and T10 of top strand and 3' of each T printed as S2T in bottom strand (4), 6 in total) DNA 1: CCAGGAGATTCCAC DNA 2: GTGGAATCTCCTGG",
    "result": "> 9.00"
  }
]
